target: Vasoactive intestinal polypeptide receptor 2 (Homo sapiens); assay: Antagonist activity at recombinant human N-terminal signal peptide/FLAG epitope-tagged VIPR2 expressed in HEK293 cells co-expressing CAMYEL assessed as inhibition of VIP-induced cAMP accumulation at 1 uM preincubated for 5 mins with luciferin, coelenterazine H followed by VIP addition measured after 5 mins by BRET assay relative to control; assay type: functional, cell-based
measurement-type: inhibition (%)

NC(=O)[C@@H](Cc1ccccc1)C[C@H](O)CNS(=O)(=O)c1ccc([N+](=O)[O-])cc1: 12.6
CCCNc1ccc(S(=O)(=O)NC[C@@H](O)C[C@@H](Cc2ccccc2)C(=O)N[C@H]2c3ccccc3C[C@H]2O)cc1: 11.3

====

Target: Vasoactive intestinal polypeptide receptor 2 (Homo sapiens) (UniProt P41587)
Sequence (whole entry): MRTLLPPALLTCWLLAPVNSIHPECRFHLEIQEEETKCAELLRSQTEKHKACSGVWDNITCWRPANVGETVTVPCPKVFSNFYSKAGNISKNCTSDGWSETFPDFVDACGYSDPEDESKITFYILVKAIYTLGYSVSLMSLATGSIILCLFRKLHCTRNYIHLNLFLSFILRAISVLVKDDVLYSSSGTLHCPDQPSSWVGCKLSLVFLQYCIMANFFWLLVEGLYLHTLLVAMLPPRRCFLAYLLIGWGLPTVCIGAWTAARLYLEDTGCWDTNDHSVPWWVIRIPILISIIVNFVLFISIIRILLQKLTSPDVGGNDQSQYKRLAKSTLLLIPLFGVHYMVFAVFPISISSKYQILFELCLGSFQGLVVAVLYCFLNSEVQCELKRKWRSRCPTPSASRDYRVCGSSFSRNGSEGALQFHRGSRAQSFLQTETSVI
Assay: Antagonist activity at recombinant human N-terminal signal peptide/FLAG epitope-tagged VIPR2 expressed in HEK293 cells co-expressing CAMYEL assessed as inhibition of VIP-induced cAMP accumulation at 0.5 uM preincubated for 5 mins with luciferin, coelenterazine H followed by VIP addition measured after 5 mins by BRET assay relative to control
Type: functional, cell-based
measurement-type: inhibition (%)

As a guide, the following entries are already answered.
O=C(CCCCl)NC[C@@H](O)C[C@@H](Cc1ccccc1)C(=O)N[C@H]1c2ccccc2C[C@H]1O: 16.4
O=C(N[C@H]1c2ccccc2C[C@H]1O)[C@H](Cc1ccccc1)C[C@H](O)CNS(=O)(=O)c1ccc(C(F)(F)F)cc1: 42
CC(=O)c1ccc(S(=O)(=O)NC[C@@H](O)C[C@@H](Cc2ccccc2)C(=O)N[C@H]2c3ccccc3C[C@H]2O)cc1: 38.6
O=C(NCc1ccccc1)c1ccc(S(=O)(=O)NC[C@@H](O)C[C@@H](Cc2ccccc2)C(=O)N[C@H]2c3ccccc3C[C@H]2O)cc1: 25

[a] O=C([C@H](Cc1ccccc1)C[C@H](O)CNS(=O)(=O)c1ccc([N+](=O)[O-])cc1)N1CCOCC1
[b] C#CCNC(=O)[C@H](Cc1ccccc1)C[C@H](O)CNS(=O)(=O)c1ccc([N+](=O)[O-])cc1
[c] NC(=O)[C@@H](Cc1ccccc1)C[C@H](O)CNS(=O)(=O)c1ccc([N+](=O)[O-])cc1
Qu. Ascending sort, inhibition. Show the ranking through the labels, in the order asked for.
Ans. a, b, c

====

molecular target: Vasoactive intestinal polypeptide receptor 2 (Homo sapiens); assay: Antagonist activity at recombinant human N-terminal signal peptide/FLAG epitope-tagged Rluc8-fused VIPR2 expressed in HEK293 cells assessed as inhibition of VIP-induced human mVenus-beta-arrestin2 binding at 5 uM preincubated for 5 mins with luciferin, coelenterazine H followed by VIP addition measured after 5 mins by BRET assay relative to control; format: cell-based
measurement-type: inhibition (%)

C=Cc1ccc(C(=O)NC[C@@H](O)C[C@@H](Cc2ccccc2)C(=O)N[C@H]2c3ccccc3C[C@H]2O)cc1: 1.8
O=C(NC[C@@H](O)C[C@@H](Cc1ccccc1)C(=O)N[C@H]1c2ccccc2C[C@H]1O)c1ccco1: 33.3

[A] CCCCNC(=O)[C@H](Cc1ccccc1)C[C@H](O)CNS(=O)(=O)c1ccc([N+](=O)[O-])cc1
[B] O=C(NC[C@@H](O)C[C@@H](Cc1ccccc1)C(=O)N[C@H]1c2ccccc2C[C@H]1O)c1ccccc1[N+](=O)[O-]
Qu. For the two items A and B , which reports the higher inhibition value? Could you answer with the label of the item you picked?
Ans. B

[1] O=C(NCc1ccccc1)[C@@H](Cc1ccccc1)C[C@H](O)CNS(=O)(=O)c1ccc([N+](=O)[O-])cc1
[2] CCCCNC(=O)[C@@H](Cc1ccccc1)C[C@H](O)CNS(=O)(=O)c1ccc([N+](=O)[O-])cc1
[3] CC1CCC(NC(=O)[C@@H](Cc2ccccc2)C[C@H](O)CNS(=O)(=O)c2ccc([N+](=O)[O-])cc2)CC1 (some centres not stated)
Qu. Kindly order the items shown according to inhibition, from the highest value down. Quick reminder: the answer is the labels in the order asked.
Ans. 2, 1, 3

====

Form field: inhibition (one value per entry).
biological target: UniProt:P41587; assay: Antagonist activity at recombinant human N-terminal signal peptide/FLAG epitope-tagged Rluc8-fused VIPR2 expressed in HEK293 cells assessed as inhibition of VIP-induced human mVenus-beta-arrestin2 binding at 0.5 uM preincubated for 5 mins with luciferin, coelenterazine H followed by VIP addition measured after 5 mins by BRET assay relative to control; type: cell-based

CCCNc1ccc(S(=O)(=O)NC[C@@H](O)C[C@@H](Cc2ccccc2)C(=O)N[C@H]2c3ccccc3C[C@H]2O)cc1: 4.1 to 15.6%
CCCCNC(=O)[C@@H](Cc1ccccc1)C[C@H](O)CNS(=O)(=O)c1ccc([N+](=O)[O-])cc1: 13.4 to 26.8%
O=C(NC[C@@H](O)C[C@@H](Cc1ccccc1)C(=O)N[C@H]1c2ccccc2C[C@H]1O)c1ccccc1[N+](=O)[O-]: 17.6 to 36.4%

response.value for O=C(N[C@H]1c2ccccc2C[C@H]1O)[C@H](Cc1ccccc1)C[C@H](O)CNS(=O)(=O)c1cccc([N+](=O)[O-])c1 (field: inhibition) = 24.2 to 27.4%

The compound O=C(NC[C@@H](O)C[C@@H](Cc1ccccc1)C(=O)N[C@H]1c2ccccc2C[C@H]1O)c1cccc(CCl)c1 showed inhibition equal to -8.1 to 2.4%

compound NC[C@@H](O)C[C@@H](Cc1ccccc1)C(=O)N[C@H]1c2ccccc2C[C@H]1O , inhibition observed: 3.7 to 17.4%

inhibition reading for CN(C)c1ccc(S(=O)(=O)NC[C@@H](O)C[C@@H](Cc2ccccc2)C(=O)N[C@H]2c3ccccc3C[C@H]2O)cc1 : 2.65 to 4.2%

Memo: CNC(=O)[C@H](Cc1ccccc1)C[C@H](O)CNS(=O)(=O)c1ccc([N+](=O)[O-])cc1 , reported inhibition: 6.25 to 6.9%

====

Target: Vasoactive intestinal polypeptide receptor 2 (Homo sapiens) (UniProt P41587)
Sequence (whole entry): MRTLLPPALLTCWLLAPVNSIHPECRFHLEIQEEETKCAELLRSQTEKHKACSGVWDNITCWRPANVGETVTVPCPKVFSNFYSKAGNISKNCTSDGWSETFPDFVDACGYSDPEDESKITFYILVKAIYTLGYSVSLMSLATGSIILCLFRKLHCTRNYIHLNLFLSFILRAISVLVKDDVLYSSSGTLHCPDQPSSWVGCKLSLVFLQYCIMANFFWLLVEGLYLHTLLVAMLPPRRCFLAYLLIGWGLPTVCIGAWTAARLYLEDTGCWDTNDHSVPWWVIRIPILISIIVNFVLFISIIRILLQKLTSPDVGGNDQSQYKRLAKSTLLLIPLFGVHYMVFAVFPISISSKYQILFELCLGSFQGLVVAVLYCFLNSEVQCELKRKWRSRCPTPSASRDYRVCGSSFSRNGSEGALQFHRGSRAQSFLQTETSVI
Experiment: Antagonist activity at recombinant human N-terminal signal peptide/FLAG epitope-tagged Rluc8-fused VIPR2 expressed in HEK293 cells assessed as inhibition of VIP-induced human mVenus-beta-arrestin2 binding at 5 uM preincubated for 5 mins with luciferin, coelenterazine H followed by VIP addition measured after 5 mins by BRET assay relative to control
Assay type: cell-based
measurement-type: inhibition (%)

O=C(N[C@H]1c2ccccc2C[C@H]1O)[C@H](Cc1ccccc1)C[C@H](O)CNS(=O)(=O)c1cccc([N+](=O)[O-])c1: 33.4

[1] Nc1ccc(S(=O)(=O)NC[C@@H](O)C[C@@H](Cc2ccccc2)C(=O)N[C@H]2c3ccccc3C[C@H]2O)cc1
[2] O=C(NC[C@@H](O)C[C@@H](Cc1ccccc1)C(=O)N[C@H]1c2ccccc2C[C@H]1O)C1CC1
[3] CC(=O)Nc1ccc(S(=O)(=O)NC[C@@H](O)C[C@@H](Cc2ccccc2)C(=O)N[C@H]2c3ccccc3C[C@H]2O)cc1
Qu. // ranking: key=inhibition, reverse=True Answer by listing the labels in the order asked for.
Ans. 2, 1, 3

====

Molecular target: UniProtKB P41587
Sequence (whole entry): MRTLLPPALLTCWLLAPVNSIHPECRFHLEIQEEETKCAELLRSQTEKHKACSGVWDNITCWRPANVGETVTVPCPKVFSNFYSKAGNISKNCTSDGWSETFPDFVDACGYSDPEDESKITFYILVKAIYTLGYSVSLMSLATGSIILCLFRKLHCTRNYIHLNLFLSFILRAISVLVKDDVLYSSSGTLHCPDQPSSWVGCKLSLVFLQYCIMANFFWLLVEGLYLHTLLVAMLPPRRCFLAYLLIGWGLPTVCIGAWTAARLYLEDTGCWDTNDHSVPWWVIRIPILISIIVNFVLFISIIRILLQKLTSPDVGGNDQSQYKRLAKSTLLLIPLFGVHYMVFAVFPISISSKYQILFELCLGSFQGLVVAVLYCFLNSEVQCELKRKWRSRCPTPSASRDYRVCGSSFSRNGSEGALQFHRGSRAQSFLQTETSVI
Assay: Antagonist activity at recombinant human N-terminal signal peptide/FLAG epitope-tagged Rluc8-fused VIPR2 expressed in HEK293 cells assessed as inhibition of VIP-induced human mVenus-beta-arrestin2 binding at 5 uM preincubated for 5 mins with luciferin, coelenterazine H followed by VIP addition measured after 5 mins by BRET assay relative to control
Format: cell-based
measurement-type: inhibition (%)

Past entries and their recorded results:
O=C(CCCCl)NC[C@@H](O)C[C@@H](Cc1ccccc1)C(=O)N[C@H]1c2ccccc2C[C@H]1O: 21.1
COc1ccc(S(=O)(=O)NC[C@@H](O)C[C@@H](Cc2ccccc2)C(=O)N[C@H]2c3ccccc3C[C@H]2O)cc1OC: 32

[A] O=C(NN1CCCCC1)[C@H](Cc1ccccc1)C[C@H](O)CNS(=O)(=O)c1ccc([N+](=O)[O-])cc1
[B] CC(C)Nc1ccc(S(=O)(=O)NC[C@@H](O)C[C@@H](Cc2ccccc2)C(=O)N[C@H]2c3ccccc3C[C@H]2O)cc1
[C] CO[C@@H]1Cc2ccccc2[C@@H]1NC(=O)[C@H](Cc1ccccc1)C[C@H](O)CNS(=O)(=O)c1ccc([N+](=O)[O-])cc1
Qu. Give the ascending ranking of the items by reported inhibition. When ranking, write the labels in the order the request describes.
Ans. C, A, B
